For each of the compounds below, state its IC50.

Field IC50 (system: mGluR5 (Rattus norvegicus, UniProt P31424)) for entry COc1ccc(-c2noc(CCC#Cc3ccccn3)n2)cc1 [Example 42] = < 10 µM

Measured IC50 (mGluR5 (Rattus norvegicus, UniProt P31424)), entry Cc1cccc2nn(CCC#Cc3ccccn3)nc12 [Example 163] : < 0.05 µM

# C(#Cc1ccccn1)CCn1ccc(-c2ccccc2)n1 [Example 159] with mGluR5 (Rattus norvegicus, UniProt P31424): IC50 is < 10 µM

Form field IC50 for item COc1ccccc1C(=O)N(C)CCC#Cc1ccccn1 [Example 216] on mGluR5 (Rattus norvegicus, UniProt P31424): < 10 µM

The compound Cc1ccccc1-c1cnn(CCC#Cc2cccc(CF)n2)c1 [Example 143] , tested on mGluR5 (Rattus norvegicus, UniProt P31424), showed IC50 of < 10 µM

Measured IC50 (mGluR5 (Rattus norvegicus, UniProt P31424)), entry Cn1c(CCC#Cc2cccc(CF)n2)nc2cccc(Cl)c21 [Example 191] : < 10 µM

Item FCc1cccc(C#CCCc2cn3cccc(-c4ccccc4)c3n2)n1 [Example 227] ; assay system mGluR5 (Rattus norvegicus, UniProt P31424); IC50 reported as < 10 µM

Bench note, mGluR5 (Rattus norvegicus, UniProt P31424): entry Cc1ccc(Cl)c2sc(CCC#Cc3ccccn3)nc12 [Example 100] , its IC50 = < 10 µM

Record C(#Cc1ccccn1)CCc1nc(-c2ccccc2)no1 [Example 10] ; system mGluR5 (Rattus norvegicus, UniProt P31424); IC50 = < 10 µM

The reported IC50 value, mGluR5 (Rattus norvegicus, UniProt P31424), for Clc1ccc2nc(CCC#Cc3ccccn3)oc2c1 [Example 36] reads < 10 µM

The compound Fc1cccc(-c2noc(CCC#Cc3ccccn3)n2)c1 [Example 26] on mGluR5 (Rattus norvegicus, UniProt P31424): IC50 was < 10 µM

The recorded IC50 with mGluR5 (Rattus norvegicus, UniProt P31424) for Clc1ccc(-c2noc(CCC#Cc3ccccn3)n2)c(Cl)c1 [Example 57] was < 10 µM

Reading of IC50 for C(#Cc1ccccn1)CCn1cc(-c2ccccc2)cn1 [Example 122] with mGluR5 (Rattus norvegicus, UniProt P31424): < 10 µM

For Fc1ccc2nc(CCC#Cc3ccccn3)oc2c1 [Example 62] on mGluR5 (Rattus norvegicus, UniProt P31424), measured IC50 was < 0.05 µM

Readout IC50 for Fc1cc2nn(CCC#Cc3ccccn3)nc2cc1F [Example 153] , test system mGluR5 (Rattus norvegicus, UniProt P31424), was < 10 µM

// returns IC50 for CC(C)n1c(CCC#Cc2ccccn2)nc2ccccc21 [Example 194] with mGluR5 (Rattus norvegicus, UniProt P31424); value = < 10 µM

Measured IC50 for this entry Fc1cccc(Cc2noc(CCC#Cc3ccccn3)n2)c1 [Example 23] on mGluR5 (Rattus norvegicus, UniProt P31424): < 10 µM

Field IC50 (system: mGluR5 (Rattus norvegicus, UniProt P31424)) for entry Clc1cccc2nc(CCC#Cc3ccccn3)oc12 [Example 63] = < 0.05 µM

Value sought: IC50, system mGluR5 (Rattus norvegicus, UniProt P31424), item CC(=O)Nc1cccc(C#CCCn2nc3ccccc3n2)n1 [Example 169] . Result: < 10 µM

Observed IC50, mGluR5 (Rattus norvegicus, UniProt P31424), Fc1ccc(C#CCCc2nc3ccccc3o2)nc1 [Example 71] : < 10 µM

Reported mGluR5 (Rattus norvegicus, UniProt P31424) IC50 for item CN(CCC#Cc1ccccn1)C(=O)c1ccccc1Cl [Example 204] was < 10 µM

The compound CC(F)c1cccc(C#CCCn2nc3ccccc3n2)n1 (stereo not drawn) [Example 182] , tested on mGluR5 (Rattus norvegicus, UniProt P31424), showed IC50 of < 10 µM

# lookup: O=C(OCCC#Cc1ccccn1)c1ccccc1Cl [Example 235] on mGluR5 (Rattus norvegicus, UniProt P31424), IC50 = < 0.05 µM

Record CN(CCC#Cc1ccccn1)C(=O)c1ccccc1F [Example 213] has mGluR5 (Rattus norvegicus, UniProt P31424) IC50 equal to < 10 µM

Tested on mGluR5 (Rattus norvegicus, UniProt P31424), the item O=c1ccccn1CCC#Cc1ccccn1 [Example 198] showed IC50 equal to < 10 µM

Record CN(CCC#Cc1ccccn1)C(=O)c1cccc(F)c1F [Example 217] has mGluR5 (Rattus norvegicus, UniProt P31424) IC50 equal to < 10 µM

The compound CN(CCC#Cc1cccc(CF)n1)S(=O)(=O)c1ccccc1Cl [Example 209] on mGluR5 (Rattus norvegicus, UniProt P31424): IC50 was < 0.05 µM

mGluR5 (Rattus norvegicus, UniProt P31424) IC50 of Cc1nc(C#CCCc2nc3ccccc3o2)c[nH]1 [Example 231] is < 10 µM

Measured IC50 for this entry FC(F)(F)c1cccc2nc(CCC#Cc3ccccn3)oc12 [Example 81] on mGluR5 (Rattus norvegicus, UniProt P31424): < 0.05 µM

Entry Fc1cc(-c2ccccc2)c2oc(CCC#Cc3ccccn3)nc2c1 [Example 83] , tested on mGluR5 (Rattus norvegicus, UniProt P31424), has a reported IC50 of < 10 µM

Summary line: Cc1nc(C#CCCc2ccccc2)cs1 [Example 1] , mGluR5 (Rattus norvegicus, UniProt P31424), reported IC50 = < 0.5 µM

Reading of IC50 for Fc1ccc2sc(CCC#Cc3ccccn3)nc2c1 [Example 104] with mGluR5 (Rattus norvegicus, UniProt P31424): < 0.05 µM

Observed IC50 on mGluR5 (Rattus norvegicus, UniProt P31424), entry Cc1cc(F)ccc1NC(=O)CCC#Cc1ccccn1 [Example 188] , equals < 10 µM

Let me check: Fc1cccnc1C#CCCc1nc2ccccc2o1 [Example 230] , system mGluR5 (Rattus norvegicus, UniProt P31424), measured IC50 is < 10 µM

IC50 value, target or system mGluR5 (Rattus norvegicus, UniProt P31424), for Cc1ccc2nn(CCC#Cc3ccccn3)nc2c1C [Example 177] : < 10 µM

Considering Cc1nc(C#CCCc2cn3ccccc3n2)cs1 [Example 73] , its IC50 with mGluR5 (Rattus norvegicus, UniProt P31424) was recorded as < 10 µM

# credit: patent US8883826B2
